# Target Of Assay: T1, CRBN, Q96SW2;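 note: pooled lentiviral library of zinc finger degron-EGFP fusions in mCherry-positive Jurkat cells, FACS-sorted after compound exposure, with degron abundance counted by next-generation sequencing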
# T1 chain: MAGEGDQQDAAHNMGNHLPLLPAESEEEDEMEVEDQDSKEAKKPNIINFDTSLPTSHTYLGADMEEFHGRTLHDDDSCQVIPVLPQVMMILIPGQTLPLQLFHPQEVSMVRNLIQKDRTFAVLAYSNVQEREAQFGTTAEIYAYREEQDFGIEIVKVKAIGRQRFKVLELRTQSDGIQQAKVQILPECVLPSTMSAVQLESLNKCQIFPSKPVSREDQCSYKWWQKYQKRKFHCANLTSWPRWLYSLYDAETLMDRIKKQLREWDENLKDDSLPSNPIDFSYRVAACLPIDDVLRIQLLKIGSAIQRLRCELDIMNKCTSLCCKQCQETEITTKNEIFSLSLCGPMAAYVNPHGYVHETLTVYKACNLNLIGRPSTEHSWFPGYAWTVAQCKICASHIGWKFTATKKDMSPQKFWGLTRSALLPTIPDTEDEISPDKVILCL
# Measurement Description: log2 fold change of degron read counts, EGFP-low vs EGFP+ sorted cells (limma voom), compound-induced degradation; higher = more compound-induced degradation of the degron-EGFP fusion; degrons are variants of IKZF1/3 zinc finger 2; compound dose not given here
# Test Context: Jurkat; 18 h; compound: compound 19 (5-tert-butyl-thalidomide)
The full ranking holds about 8,300 sequences; the median of “log2 fold change of degron read counts, EGFP-low vs EGFP+ sorted cells (limma voom), compound-induced degradation” is about -1.1, and the highest 2% start at about 3.2. For the sample, the highest values were picked, then their nearest neighbours and some sequences at random.
Experimental Readout: log2 fold change of degron read counts
Note: the reply should be a number with no unit written.

- Input Sequence: "FFCEICGHRFTQKGNLLRHIKL [46F_47F_49E_50I_52G_53H_54R_55F_67L_, Q9UKT9]"
  Recorded Result: -1.06
- Input Sequence: "LSCEICGFTCTQKGNLLRHIKL [46L_47S_49E_50I_52G_53F_54T_55C_67L_, Q9UKT9]"
  Recorded Result: 3.05
- Input Sequence: "LGCEICGFTCTQKGNLLRHIKL [46L_47G_49E_50I_52G_53F_54T_55C_67L_, Q9UKT9]"
  Recorded Result: 2.28

In: Provide measured log2 fold change of degron read counts value, entry: LDCEICGFTCTQKGNLLRHIKL [46L_47D_49E_50I_52G_53F_54T_55C_67L_, Q9UKT9]
Out: 0.0603
